- measuredTarget: Tyrosine-protein kinase ABL1 (Homo sapiens)
- Sequence (P00519 whole entry): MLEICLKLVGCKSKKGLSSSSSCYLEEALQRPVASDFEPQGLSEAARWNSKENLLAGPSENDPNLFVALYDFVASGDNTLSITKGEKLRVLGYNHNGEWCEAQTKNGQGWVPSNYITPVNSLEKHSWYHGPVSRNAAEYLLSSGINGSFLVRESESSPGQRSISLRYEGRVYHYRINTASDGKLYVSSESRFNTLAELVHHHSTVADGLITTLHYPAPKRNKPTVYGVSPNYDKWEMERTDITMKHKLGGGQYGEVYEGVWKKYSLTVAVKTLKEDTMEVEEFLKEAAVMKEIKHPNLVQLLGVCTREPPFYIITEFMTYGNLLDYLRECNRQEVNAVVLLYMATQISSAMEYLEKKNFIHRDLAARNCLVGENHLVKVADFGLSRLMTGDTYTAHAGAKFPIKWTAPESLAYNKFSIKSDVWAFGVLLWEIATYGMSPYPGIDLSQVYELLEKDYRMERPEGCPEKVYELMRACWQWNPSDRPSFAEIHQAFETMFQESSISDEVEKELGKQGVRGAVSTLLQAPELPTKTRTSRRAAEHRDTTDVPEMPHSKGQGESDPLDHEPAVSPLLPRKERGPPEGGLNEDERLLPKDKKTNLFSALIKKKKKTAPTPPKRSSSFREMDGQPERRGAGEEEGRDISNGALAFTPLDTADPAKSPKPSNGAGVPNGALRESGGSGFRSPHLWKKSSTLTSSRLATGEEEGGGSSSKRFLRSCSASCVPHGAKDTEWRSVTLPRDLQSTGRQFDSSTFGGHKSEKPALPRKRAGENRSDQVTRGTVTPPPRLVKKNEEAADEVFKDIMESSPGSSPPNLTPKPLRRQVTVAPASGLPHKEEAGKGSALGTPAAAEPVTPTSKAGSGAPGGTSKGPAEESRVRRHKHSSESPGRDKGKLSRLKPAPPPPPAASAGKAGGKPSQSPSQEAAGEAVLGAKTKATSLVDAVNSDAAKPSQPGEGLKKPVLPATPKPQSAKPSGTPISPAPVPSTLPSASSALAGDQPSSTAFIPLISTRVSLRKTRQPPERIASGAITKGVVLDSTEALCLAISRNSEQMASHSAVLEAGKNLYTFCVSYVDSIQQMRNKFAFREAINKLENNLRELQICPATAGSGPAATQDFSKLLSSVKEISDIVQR
- testName: Inhibition of recombinant Abl kinase (unknown origin) expressed in Sf9 cells assessed as residual enzyme activity using GGEAIYAAPFKK as substrate at 25 uM in presence of [gamma33P]ATP
assayMetric: Activity (%)

>  <molecule>
Cc1nn(C)c2nnc(Nc3ccc(S(=O)(=O)N4CCCC4)cc3)nc12

>  <measuredTarget>
Tyrosine-protein kinase ABL1 (Homo sapiens)

>  <Activity (%)>
100

$$$$

1: Cc1nn(C)c2nnc(Nc3ccc(S(=O)(=O)N4CCOCC4)cc3)nc12
2: Cc1nn(C)c2nnc(Nc3ccc(S(=O)(=O)N4CCN(C)CC4)cc3)nc12
Problem: Form: Entry with minimum Activity (choose one): 1 / 2 Bench note: the answer is the label of the chosen record.
Result: 2
(2: 55%, 1: 80%)

A: Cc1nn(C)c2nnc(Nc3ccc(S(N)(=O)=O)cc3)nc12
B: Cc1nn(C)c2nnc(Nc3ccc(S(=O)(=O)N4CCCCC4)cc3)nc12
Problem: Form: Entry with minimum Activity (choose one): A / B Bench note: the answer is the label of the chosen record.
Result: A

----------
- Tested on: MDA-MB-231
- testName: Cytostatic activity against human MDA-MB-231 cells assessed as decrease in [3H]thymidine incorporation into DNA after 24 hrs by liquid scintillation counting analysis
- Assay type: functional, cell-based
pIC50: −log10 of the molar value.
assayMetric: pIC50

>  <compound>
Cc1nn(C)c2nnc(Nc3ccc(S(=O)(=O)N4CCCCC4)cc3)nc12

>  <reportedValue>
3.87

$$$$
>  <compound>
Cc1nn(C)c2nnc(Nc3ccc(S(=O)(=O)NCC(O)CO)cc3)nc12 (stereo not drawn)

>  <reportedValue>
3.89

$$$$

----------
// reported pIC50 per item
- testName: In vitro antiproliferative activity against human BV173 cells assessed as decrease in cell viability after 24 hrs by MTT assay
- Type: functional, cell-based
- particulars: BV-173, 24 h
Entry type: numeric. Quantity: pIC50, the -log10 of concentration in molar units.

Some entries whose results are on file:
>  <chemicalString>
Cc1nn(C)c2nnc(Nc3ccc(S(=O)(=O)N4CCNCC4)cc3)nc12

>  <reportedValue>
4.66

$$$$
>  <chemicalString>
Cc1nn(C)c2nnc(Nc3ccc(S(=O)(=O)NCCN4CCOCC4)cc3)nc12

>  <reportedValue>
4.41

$$$$
>  <chemicalString>
Cc1nn(C)c2nnc(Nc3ccc(S(=O)(=O)N4CCOCC4)cc3)nc12

>  <reportedValue>
4.24

$$$$

Alright, here's another compound for you.
Problem: Item Cc1nn(C)c2nnc(Nc3ccc(S(=O)(=O)N4CCCCC4)cc3)nc12 has what recorded pIC50?
Result: 4.44

----------
- Tested on: MDA-MB-231
- testName: Cytostatic activity against human MDA-MB-231 cells assessed as decrease in [3H]thymidine incorporation into DNA after 24 hrs by liquid scintillation counting analysis
- Type: functional, cell-based
assayMetric: IC50 (µM)

Some entries whose results are on file:
>  <chemicalString>
O=C(O)CCCc1ccc(N(CCCl)CCCl)cc1

>  <measuredTarget>
MDA-MB-231

>  <assayMetric>
IC50

>  <reportedValue>
49

$$$$
>  <chemicalString>
Cc1nn(C)c2nnc(Nc3ccc(S(=O)(=O)N4CCCNCC4)cc3)nc12

>  <measuredTarget>
MDA-MB-231

>  <assayMetric>
IC50

>  <reportedValue>
150

$$$$
>  <chemicalString>
Cc1nn(C)c2nnc(Nc3ccc(S(=O)(=O)NCCN)cc3)nc12

>  <measuredTarget>
MDA-MB-231

>  <assayMetric>
IC50

>  <reportedValue>
90

$$$$

A: Cc1nn(C)c2nnc(Nc3ccc(S(=O)(=O)N4CCN(C)CC4)cc3)nc12
B: Cc1nn(C)c2nnc(Nc3ccc(S(=O)(=O)NCCN4CCOCC4)cc3)nc12
Problem: Form: Entry with minimum IC50 (choose one): A / B Bench note: the answer is the label of the chosen record.
Result: A
(A: 80 µM, B: 120 µM)

----------
// reported pIC50 per item
- testName: In vitro antiproliferative activity against human BV173 cells assessed as decrease in cell viability after 24 hrs by MTT assay
- Format: functional, cell-based
- particulars: BV-173, 24 h
Entry type: numeric. Quantity: pIC50, the -log10 of concentration in molar units.

Some entries whose results are on file:
>  <compound>
Cc1nn(C)c2nnc(Nc3ccc(S(=O)(=O)NCCN)cc3)nc12

>  <assayMetric>
pIC50

>  <reportedValue>
4.41

$$$$
>  <compound>
O=C(O)CCCc1ccc(N(CCCl)CCCl)cc1

>  <assayMetric>
pIC50

>  <reportedValue>
4.47

$$$$
>  <compound>
Cc1nn(C)c2nnc(Nc3ccc(S(=O)(=O)N4CCCC4)cc3)nc12

>  <assayMetric>
pIC50

>  <reportedValue>
4.33

$$$$
>  <compound>
Cc1nn(C)c2nnc(Nc3ccc(S(N)(=O)=O)cc3)nc12

>  <assayMetric>
pIC50

>  <reportedValue>
4.35

$$$$
>  <compound>
Cc1nn(C)c2nnc(Nc3ccc(S(=O)(=O)NCCO)cc3)nc12

>  <assayMetric>
pIC50

>  <reportedValue>
4.39

$$$$
>  <compound>
Cc1nn(C)c2nnc(Nc3ccc(S(=O)(=O)N4CCCNCC4)cc3)nc12

>  <assayMetric>
pIC50

>  <reportedValue>
4.66

$$$$
>  <compound>
Cc1nn(C)c2nnc(Nc3ccc(S(=O)(=O)NC(CO)C(C)C)cc3)nc12 (stereo not given)

>  <assayMetric>
pIC50

>  <reportedValue>
4.24

$$$$
>  <compound>
Cc1nn(C)c2nnc(Nc3ccc(S(=O)(=O)NCC(O)CO)cc3)nc12 (stereo not given)

>  <assayMetric>
pIC50

>  <reportedValue>
4.38

$$$$

Problem: Item Cc1ccc(NC(=O)c2ccc(CN3CCN(C)CC3)cc2)cc1Nc1nccc(-c2cccnc2)n1 has what recorded pIC50?
Result: 4.70

Problem: Another compound to check: Cc1nn(C)c2nnc(Nc3ccc(S(=O)(=O)N4CCN(C)CC4)cc3)nc12
Result: 4.40

----------
- Tested on: K562
- testName: In vitro antiproliferative activity against human K562 cells assessed as decrease in cell viability after 24 hrs by MTT assay
- Format: functional, cell-based
- particulars: K562, 24 h
pIC50: −log10 of the molar value.
assayMetric: pIC50

Some entries whose results are on file:
>  <compound>
Cc1nn(C)c2nnc(Nc3ccc(S(=O)(=O)NCCO)cc3)nc12

>  <reportedValue>
4.00

$$$$
>  <compound>
Cc1nn(C)c2nnc(Nc3ccc(S(=O)(=O)NCC(O)CO)cc3)nc12 (stereo not given)

>  <reportedValue>
4.00

$$$$
>  <compound>
Cc1nn(C)c2nnc(Nc3ccc(S(N)(=O)=O)cc3)nc12

>  <reportedValue>
3.97

$$$$
>  <compound>
O=C(O)CCCc1ccc(N(CCCl)CCCl)cc1

>  <reportedValue>
4.08

$$$$
>  <compound>
Cc1nn(C)c2nnc(Nc3ccc(S(=O)(=O)NCCN4CCOCC4)cc3)nc12

>  <reportedValue>
4.02

$$$$
>  <compound>
Cc1nn(C)c2nnc(Nc3ccc(S(=O)(=O)N4CCN(C)CC4)cc3)nc12

>  <reportedValue>
4.18

$$$$

A: Cc1nn(C)c2nnc(Nc3ccc(S(=O)(=O)N4CCNCC4)cc3)nc12
B: Cc1ccc(NC(=O)c2ccc(CN3CCN(C)CC3)cc2)cc1Nc1nccc(-c2cccnc2)n1
C: Cc1nn(C)c2nnc(Nc3ccc(S(=O)(=O)NCCN)cc3)nc12
Problem: Ranking field: pIC50; order: falling. Lab note: final answer is the ordered label list.
Result: B, A, C

----------
- measuredTarget: Tyrosine-protein kinase ABL1 (Homo sapiens)
- testName: Inhibition of recombinant Abl kinase (unknown origin) expressed in Sf9 cells using GGEAIYAAPFKK as substrate in presence of [gamma33P]ATP
pIC50: −log10 of the molar value.
assayMetric: pIC50

>  <compound>
Cc1nn(C)c2nnc(Nc3ccc(S(=O)(=O)NCC(O)CO)cc3)nc12 (stereo not given)

>  <reportedValue>
4.47

$$$$

a: Cc1nn(C)c2nnc(Nc3ccc(S(N)(=O)=O)cc3)nc12
b: Cc1nn(C)c2nnc(Nc3ccc(S(=O)(=O)NCCN4CCOCC4)cc3)nc12
Problem: Given a and b , report the one with the higher recorded pIC50. Bench note: the answer is the label of the chosen record.
Result: b

----------
- System: K562
- testName: In vitro antiproliferative activity against human K562 cells assessed as decrease in cell viability after 24 hrs by MTT assay
- Type: functional, cell-based
- particulars: K562, 24 h
assayMetric: IC50 (µM)

>  <chemicalString>
Cc1nn(C)c2nnc(Nc3ccc(S(=O)(=O)N4CCCCC4)cc3)nc12

>  <IC50 / µM>
98

$$$$

a: Cc1nn(C)c2nnc(Nc3ccc(S(=O)(=O)N4CCOCC4)cc3)nc12
b: Cc1nn(C)c2nnc(Nc3ccc(S(=O)(=O)N4CCCNCC4)cc3)nc12
Problem: Given a and b , report the one with the higher recorded IC50. Bench note: the answer is the label of the chosen record.
Result: a
